Quick list: half-life per entry.
Experiment: Pharmacokinetics in male CD1 mice, IV administration
Type: in vivo, mouse
Settings: mouse, IV 5 mg/kg, whole blood, read-out: Terminal t1/2 (converted)
Respond with the bare value in h.

Cc1sc2c(c1C)C(c1ccc(C#N)cc1)=N[C@@H](CC(=O)NC[C@H](C)O)c1nnc(C)n1-2: 0.411

Reported half-life for "COC(=O)C[C@@H]1N=C(c2ccc(Cl)cc2)c2c(sc(CC#N)c2C)-n2c(C)nnc21" : what is it? 1.38

Would you kindly share the measured half-life for "Cc1sc2c(c1C)C(c1ccc(C#N)cc1)=N[C@@H](CC(=O)NCC(F)F)c1nnc(C)n1-2" ? 1.11

---

Examples of compounds with documented Vd follow.
Assay: Pharmacokinetics in male CD1 mice, IV administration
Assay type: in vivo, mouse
Conditions: mouse, IV 5 mg/kg, whole blood, read-out: VSS
Provide the reading as a plain figure in L/kg.

COC(=O)C[C@@H]1N=C(c2ccc(Cl)cc2)c2c(sc(CC#N)c2C)-n2c(C)nnc21: 1.57
Cc1sc2c(c1C)C(c1ccc(C#N)cc1)=N[C@@H](CC(=O)NCC(F)F)c1nnc(C)n1-2: 1.18

Look up Vd: "Cc1sc2c(c1C)C(c1ccc(C#N)cc1)=N[C@@H](CC(=O)NC[C@H](C)O)c1nnc(C)n1-2" 0.583

---

Test system BRD4(1) (Homo sapiens (Human), UniProt O60885), IC50 listed for each of the compounds.
Please respond with the number in nM and leave the unit unwritten.

BRD4(1) (Homo sapiens (Human), UniProt O60885) / IC50 / Cc1c(CC#N)sc2c1C(c1ccc(Cl)cc1)=N[C@@H](CC(=O)N1CCOCC1)c1nnc(C)n1-2 [Compound 210] : value? 466

Could you share what IC50 was measured for Cc1c(CC#N)sc2c1C(c1ccc(Cl)cc1)=N[C@@H](CC(=O)Nc1ccc(O)cc1)c1nnc(C)n1-2 [Compound 201] , tested on BRD4(1) (Homo sapiens (Human), UniProt O60885)? 175

Request body: readout IC50, system BRD4(1) (Homo sapiens (Human), UniProt O60885), query Cc1sc2c(c1C)C(c1ccc(C#N)cc1)=N[C@@H](CC(=O)NCCN1CCOCC1)c1nnc(C)n1-2 [Compound 104] . Return the value. 53

Hello, I am looking for reported IC50 with BRD4(1) (Homo sapiens (Human), UniProt O60885) for Cc1sc2c(c1C)C(c1ccc(C#N)cc1)=N[C@@H](CC(=O)NCC(F)(F)F)c1nnc(C)n1-2 [Compound 111] . Could you help? 117

---

Molecular target: UniProtKB Q58F21
Readings of pIC50 for the listed compounds
pIC50 is a log-scale quantity: -log10 of the concentration expressed in molar.

Consider the following illustrative entries.
Cc1sc2c(c1C)C(c1ccc(C#N)cc1)=N[C@@H](CC(=O)NCCN1CCOCC1)c1nnc(C)n1-2 [Compound 104]: 6.67
COC(=O)C[C@@H]1N=C(c2ccc(Cl)cc2)c2c(sc(CNS(=O)(=O)c3ccccc3)c2C)-n2c(C)nnc21 [Compound 300]: 7.22
CCNC(=O)C[C@@H]1N=C(c2ccc(C#N)cc2)c2c(sc(C)c2C)-n2c(C)nnc21 [Compound 102]: 6.34

Okay, next one:
What does the data say about its pIC50? Entry: Cc1sc2c(c1C)C(c1ccc(C#N)cc1)=N[C@@H](CC(=O)Nc1ccc(O)cc1)c1nnc(C)n1-2 [Compound 101] 6.92
